The entries below are paired with their reported melting point.
Express the result in °C but write the number alone.

Here is how some compounds turned out for melting point.
[
  {
    "COMPOUND": "CCCCN1CCOCC1",
    "melting point (°C)": -57.1
  },
  {
    "COMPOUND": "C/C=C/C(=O)O",
    "melting point (°C)": 72
  },
  {
    "COMPOUND": "Cn1c(=O)c2[nH]c(Cl)nc2n(C)c1=O",
    "melting point (°C)": 290
  },
  {
    "COMPOUND": "CCC1(c2ccccc2)NC(=O)N(C)C1=O (configuration not stated)",
    "melting point (°C)": 136
  }
]

We now examine a further compound.
In: Form field: reported melting point of "Cc1c(F)c(F)c(C)c(F)c1F"
Out: 36
